assay: Stability in mouse liver microsomes assessed as parent compound remaining level at 1 uM after 0.5 hrs by HPLC-MS/MS analysis; format: ADME, Microsome; details: read-out: Stabilty
remaining at 0.5 h, 1 µM overview
Please state the number and follow it with the unit.

INSERT INTO results (molecule, measure_name, result) VALUES
  ('Cc1ccc(NC(=O)c2ccc(CCN(C)C)cc2)cc1Nc1nccc(-c2cccnc2)n1', 'remaining at 0.5 h, 1 µM', '7.9%');

Now let's try a different one.
Q: What remaining at 0.5 h, 1 µM value was documented for this molecule, CS(=O)(=O)O.Cc1ccc(NC(=O)c2ccc(CN3CCN(C)CC3)cc2)cc1Nc1nccc(-c2cccnc2)n1 [IMATINIB MESYLATE] ?
Result: 7.3%
